assay overview: growth inhibition of wild-type GFP E. coli, dose response, h38 mutant RFP, cherry-pick (AID 977622)
details: 24 h; E. coli mixed culture, total growth OD600 at 50 uM, at 50 µM
Out of some 1,900 compounds screened, fewer than 10 were called active. Inconclusive results (about 39%) are left out. Only a sample is shown.
# reported activity change; entries follow
Write it as a number; the unit % goes unstated.

Please report the recorded activity change for `O=C1c2ccccc2CSc2c(O)cccc21` . -41.7

Follow-up item: `C=CCNc1ccc2c(c1)OC[C@H](CC(C)C)NS2(=O)=O` -16.5

Follow-up item: `NS(=O)(=O)c1cc(C(=O)OCC(=O)Nc2ccccc2[N+](=O)[O-])ccc1Cl` -8.81

Follow-up item: `Cc1cccc(Oc2ccc(NC(=O)c3ccccc3C(=O)O)cc2)c1` -16.2

Follow-up item: `C[C@@H]1CN([C@@H](C)CO)C(=O)CCCn2nncc2CO[C@H]1CN(C)C(=O)Nc1cccc(C(F)(F)F)c1` -2.42

====

System: E. coli h38 humanized mutant ribosome RFP fluorescence, mixed culture, 24 h
assay overview: growth inhibition of wild-type GFP E. coli, dose response, h38 mutant RFP, cherry-pick (AID 977622)
details: h38 mutant RFP at 50 uM; at 50 µM
The whole screen tested about 1,900 compounds, of which fewer than 10 were called active. Inconclusive results (about 39%) are left out. A selection follows.
assay metric: activity change (%)
Write it as a number; the unit % goes unstated.

In the examples that follow, each entry is paired with its recorded activity change.
compound	activity change [%]
O=C(C[n+]1ccn(-c2ccccc2)c1)c1ccc([N+](=O)[O-])cc1	-5.23
c1ccc2c(c1)CSc1ccccc1N2	-11.4
COC(=O)CN1C(=S)N(c2ccc(F)cc2)C(=O)C1CC(=O)Nc1ccc(OC)cc1 (stereo not given)	9.32
CN(Cc1ccccc1NS(=O)(=O)c1ccc(Cl)cc1)C1CCCCC1	25.7

activity change of `COc1cc(OC)cc(C(=O)N[C@H](C(=O)OCC(=O)Nc2ccc(F)c(F)c2F)C(C)C)c1` on E. coli h38 humanized mutant ribosome RFP fluorescence, mixed culture, 24 h? -9.06

====

assay overview: growth inhibition of wild-type GFP E. coli, dose response, h38 mutant RFP, cherry-pick (AID 977622)
details: 24 h; E. coli mixed culture, total growth OD600 at 50 uM, at 50 µM
The campaign covered roughly 1,900 compounds. Fewer than 10 were called active. About 39% were inconclusive and are not listed. A selection follows.
assay metric: activity change (%)
Write it as a number; the unit % goes unstated.

compound	measurement units	activity change
COc1ccccc1NC(=O)CSc1ncc(CO)n1Cc1ccc(F)cc1	%	-27.8
Cc1onc(-c2ccccc2Cl)c1C(=O)Nc1ccc(Cl)cn1	%	-9.88
C[C@@H]1CCCCO[C@H](CN(C)C)[C@@H](C)CN([C@H](C)CO)C(=O)c2cc(NC(=O)Nc3cccc4ccccc34)ccc2O1	%	8.4
COc1cccc(CC(=O)OC(C)C(=O)NCc2ccc3c(c2)OCO3)c1 (stereo not given)	%	-31
CC(=O)Nc1cccc(OCc2ccc([N+](=O)[O-])cc2)c1	%	-10.5
CS(=O)(=O)c1ccc(Cl)c(NC(=O)COC(=O)c2c(Cl)cccc2Cl)c1	%	-7.03

Please report the recorded activity change for `COC(=O)c1ccc(CCc2cc(O)c(Br)cc2O)cc1` . -52.8

Follow-up item: `Cc1noc(C)c1NC(=O)Nc1ccc2c(c1)C(=O)N([C@@H](C)CO)C[C@@H](C)[C@H](CN(C)C(=O)Nc1ccc3c(c1)OCO3)OCCCC[C@@H](C)O2` -13.2

Follow-up item: O=C(O)CC(CC(=O)Nc1ccc(Oc2ccccc2)cc1)c1ccccc1 (stereo not given) -38.6

Follow-up item: `O=C(Cc1ccc(Cl)cc1)c1ccc(O)cc1` -1.58

Follow-up item: `Cc1cccc(CN2C(=O)c3ccccc3Sc3ccc(C(=O)O)cc32)c1` -13.7

Follow-up item: `COc1ccc(NC(=O)Nc2cccc3c2O[C@H](CN(C)S(=O)(=O)c2ccc(Cl)cc2)[C@@H](C)CN([C@@H](C)CO)C3=O)cc1` -2.69

Follow-up item: O=C(c1cccc2ccccc12)C1CCCN(C(=O)CCc2cnccn2)C1 (stereo not given) -12

Follow-up item: `COc1cc(C#N)ccc1OCC(=O)Nc1cccc(S(=O)(=O)N2CCCC2)c1` -1.82

Follow-up item: `CCOC(=O)c1cccc(OC(=O)CCNC(=O)c2ccc(Cl)cc2)c1` -36.4

Follow-up item: O=C(c1cc(COc2ccc(F)cc2F)on1)N1CCCC(c2ccccc2)C1 (stereo not given) 5.17

Follow-up item: `O=C1OC[C@@H]2CCCN2C(=O)[C@@H](CC(=O)N(CCO)Cc2ccccc2)C/C=C\C[C@H]1Cc1ccc(F)cc1` -20.1

Follow-up item: `O=C(NCCCn1ccnc1)c1sc2cc([N+](=O)[O-])ccc2c1Cl` -6

Follow-up item: `Fc1cccc(Cc2c(-c3ccco3)nc3c4ccccc4ccn23)c1` 3.21

Follow-up item: COC(=O)CN1C(=S)N(c2ccc(F)cc2)C(=O)C1CC(=O)Nc1ccc(OC)cc1 (stereo not given) -4.61
